All values here come from PubChem BioAssay (NCATS).

Tested on: HeLa
protocolNotes: Primary qHTS to identify gynecologic anti-cancer compounds using libraries of approved drugs and bioactive compounds (AID 1345084); also: nearly all actives have a fitted effect of over 55% in size
setupConditions: Gynecologic cancer cell panel viability, ATPlite luminescence, 48 h; series mostly up to 57.5 µM
Inconclusive results are not listed. The source made the active and inactive calls. Calls follow the shape of the dose curve; as a rule, active = well fitted cell-killing curve with a large enough effect; inconclusive = small, poorly fitted or top-dose-only effect, or effect the other way; inactive = flat fitted curve, though single readings scatter. Where a SMILES comes first, the peptide text is derived from it. The star is where a group is joined. βNA = c1ccc2cc(N*)ccc2c1; Cbz = O=C(OCc1ccccc1)*
quantityKind: activity change, negative = cytotoxicity

Some solved entries appear below for comparison.
>  <molecule>
O=C(OC1C=C(CO)C2C(OC3OC(CO)C(O)C(O)C3O)OC=CC12O)c1ccc(O)cc1 (stereo unspecified)

>  <activity change, negative = cytotoxicity>
inactive

$$$$
>  <molecule>
CC(=O)c1ccc(O[C@@H]2O[C@H](CO[C@@H]3OC[C@@H](O)[C@H](O)[C@H]3O)[C@@H](O)[C@H](O)[C@H]2O)cc1

>  <activity change, negative = cytotoxicity>
inactive

$$$$
>  <molecule>
COC(=O)C1=CO[C@@H](O[C@@H]2O[C@H](CO)[C@@H](O)[C@H](O)[C@H]2O)[C@@H]2[C@@H](C(=O)O)CC[C@H]12

>  <activity change, negative = cytotoxicity>
inactive

$$$$
>  <molecule>
NC1(c2ccc(NC(=O)c3ccnc(-c4cc(C(=O)O)ccn4)c3)cc2)CC1

>  <activity change, negative = cytotoxicity>
inactive

$$$$

Any idea what activity change, negative = cytotoxicity was measured for C=C1CCC2[C@@](C)(C(=O)O)CCC[C@@]2(C)[C@@H]1CCc1ccoc1 (stereo partly specified) ?
inactive

Endpoint output: activity change, negative = cytotoxicity of O=C(OC[C@H]1O[C@H](O[C@]2(CO)O[C@H](CO)[C@@H](O)[C@@H]2O)[C@H](O)[C@@H](O)[C@@H]1O)c1ccc(O)cc1 . Value?
inactive

Would you mind telling me what activity change, negative = cytotoxicity value was observed for COc1ccc(NC(=O)c2ccc(-c3ccc(C(N)=O)cc3C)cc2)cc1N1CCN(C)CC1 ?
inactive

Which activity change, negative = cytotoxicity value belongs to CC(C)CC(NC(=O)OCc1ccccc1)C(=O)NC(CC(C)C)C(=O)NC(CCC(=O)O)C(=O)Nc1ccc2ccccc2c1 (stereo not drawn) (Cbz-Leu-Leu-Glu-βNA; configuration not given here) ?
inactive

Please report the recorded activity change, negative = cytotoxicity for O=C(N[C@@H]1CC[C@@H](c2cccc(F)c2F)CN(CC(F)(F)F)C1=O)N1CCC(n2c(=O)[nH]c3ncccc32)CC1 .
inactive

So what does the record say about activity change, negative = cytotoxicity for C[C@]12CCC[C@](C)(C(=O)O)C1[C@@H](O)[C@@H](O)C13CC(CCC12)C(CO)(O[C@@H]1O[C@H](CO)[C@@H](O)[C@H](O)[C@H]1O)C3 (stereo partly specified) ?
inactive
